Readings of Kd for the listed compounds
target_desc: proMMP9(67-444;ΔFnII) (SEQ ID NO:5) (Homo sapiens, UniProt P14780, DEL216-390)
Construct: start methionine (N)
Sequence (P14780 with tags, fused parts or gaps DEL216-390): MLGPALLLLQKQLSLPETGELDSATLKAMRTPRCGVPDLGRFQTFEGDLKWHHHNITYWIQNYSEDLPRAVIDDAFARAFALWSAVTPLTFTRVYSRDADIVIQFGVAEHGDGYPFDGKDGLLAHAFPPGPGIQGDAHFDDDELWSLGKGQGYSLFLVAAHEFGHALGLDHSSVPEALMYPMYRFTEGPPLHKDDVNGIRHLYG
protocol_details: ThermoFluor binding assay with proMMP9(67-444;ΔFnII)
condition_description: pH 7.0
Enter your answer as a number in nM; do not include the unit.

Check out these entries, answers already filled in.
compound: CC(=O)Nc1nc(C)c(-c2csc(Nc3cccc4cccnc34)n2)s1 [Example 146]
target_desc: proMMP9(67-444;ΔFnII) (SEQ ID NO:5) (Homo sapiens, UniProt P14780, DEL216-390)
observed: 1300
//
compound: COc1ccc(C(N)=O)cc1Nc1nc(-c2sc(NC(C)=O)nc2C)cs1 [Example 85]
target_desc: proMMP9(67-444;ΔFnII) (SEQ ID NO:5) (Homo sapiens, UniProt P14780, DEL216-390)
observed: 750

Next up:
q: Value lookup for Kd; key = CCN1CCCN(C(=O)c2nc(C)c(-c3csc(Nc4cc(C(N)=O)ccc4OC(C)C)n3)s2)CC1 [Example 114]
a: 960

====

target_desc: proMMP9(20-445;ΔFnII) (SEQ ID NO:6) (Homo sapiens, UniProt P14780, DEL216-390)
Construct: start methionine (N)
Sequence (P14780 with tags, fused parts or gaps DEL216-390): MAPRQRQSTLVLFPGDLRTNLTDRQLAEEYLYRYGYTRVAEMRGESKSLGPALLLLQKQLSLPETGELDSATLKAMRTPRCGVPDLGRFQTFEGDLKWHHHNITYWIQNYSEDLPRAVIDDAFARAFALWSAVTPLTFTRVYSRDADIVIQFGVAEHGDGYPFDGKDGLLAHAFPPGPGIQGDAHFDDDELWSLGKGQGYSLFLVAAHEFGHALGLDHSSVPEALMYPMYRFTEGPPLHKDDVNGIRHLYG
protocol_details: ThermoFluor binding assay with proMMP9(20-445;ΔFnII)
condition_description: pH 7.0
Consider the cut-off 1000 nM. If the recorded Kd is strictly smaller, the label is Fulfilled; if not, the label is Not fulfilled.

These recorded examples may help you get a feel for the data.
compound: CCOc1ccc(-c2ncco2)cc1Nc1nc(-c2sc(N)nc2C)cs1 [Example 79]
discrete_label: Not fulfilled
--
compound: CCOc1ccc(C(=O)O)cc1Nc1nc(-c2sc(N)nc2C)cs1 [Example 46]
discrete_label: Not fulfilled
--
compound: Cc1nc(N2CCN(C)CC2)sc1-c1csc(Nc2cc(C(N)=O)ccc2OC(C)C)n1 [Example 90]
discrete_label: Fulfilled

Now consider a different compound.
q: Problem: For the compound Cc1cc2cccc(Nc3nc(-c4sc(C)nc4C)cs3)c2o1 [Example 29] , is Kd under 1000 nM?
a: Not fulfilled

====

target_desc: proMMP9(67-444;ΔFnII) (SEQ ID NO:5) (Homo sapiens, UniProt P14780, DEL216-390)
Construct: start methionine (N)
protocol_details: ThermoFluor binding assay with proMMP9(67-444;ΔFnII)
condition_description: pH 7.0
Consider the cut-off 4000 nM. If the recorded Kd is strictly smaller, the label is yes; if not, the label is no.

These recorded examples may help you get a feel for the data.
smiles_notation: CCOC(=O)c1ccc(OCC)c(Nc2nc(-c3sc(C)nc3C)cs2)c1
discrete_label: yes
//
smiles_notation: CCN1CCN(C(=O)c2nc(C)c(-c3csc(Nc4cc(C(N)=O)ccc4OC(C)C)n3)s2)CC1
discrete_label: yes
//
smiles_notation: Cc1nc(C(=O)N2CCN(C)CC2)sc1-c1csc(Nc2cc(C(N)=O)ccc2OC(C)C)n1
discrete_label: yes
//
smiles_notation: CCSc1ccc(S(N)(=O)=O)cc1Nc1nc(-c2sc(C)nc2C)cs1
discrete_label: yes
//
smiles_notation: CCOc1ccc(C(N)=O)cc1Nc1nc(-c2sc(C(=O)N3CCN(C(C)C)CC3)nc2C)cs1
discrete_label: yes
//
smiles_notation: COc1cc(C)c(C(N)=O)cc1Nc1nc(-c2sc(C)nc2C)cs1
discrete_label: no
//
smiles_notation: COc1ccc(C)cc1Nc1nc(-c2sc(N)nc2C)cs1
discrete_label: yes
//
smiles_notation: Cc1nc(C)c(-c2csc(Nc3cc(C(N)=O)ccc3OCC(F)(F)F)n2)s1
discrete_label: yes

q: Problem: For the molecule `COc1ccc(-c2c(C)noc2C)cc1Nc1nc(-c2sc(C)nc2C)cs1` , is Kd under 4000 nM?
a: no

q: Cool, now `CC(=O)Nc1nc(C)c(-c2csc(Nc3cc(C(N)=O)ccc3OC(C)C)n2)s1`
a: yes

q: Cool, now `CCCOc1ccc(C(N)=O)cc1Nc1nc(-c2sc(C)nc2C)cs1`
a: no

q: Cool, now `COc1ccc(-c2cccnc2)cc1Nc1nc(-c2sc(C)nc2C)cs1`
a: no

q: Cool, now `COc1ccc(-c2ccc(C(C)=O)s2)cc1Nc1nc(-c2sc(C)nc2C)cs1`
a: no

q: Cool, now `Cc1nc(Nc2cccnc2)sc1-c1csc(Nc2cc(C(N)=O)ccc2OC(C)C)n1`
a: yes

q: Cool, now `Cc1cc2cccc(Nc3nc(-c4sc(C)nc4C)cs3)c2o1`
a: no

q: Cool, now `COc1ccc(C(=O)NCCN2CCCCC2)cc1Nc1nc(-c2sc(NC(C)=O)nc2C)cs1`
a: no

q: Cool, now `Cc1nc(C)c(-c2csc(Nc3cc(S(N)(=O)=O)ccc3OC(F)(F)F)n2)s1`
a: yes

q: Cool, now `COc1ccc(S(N)(=O)=O)cc1Nc1nc(-c2sc(N)nc2C)cs1`
a: yes

q: Cool, now `Cc1nc(C)c(-c2csc(Nc3cc(C(N)=O)ccc3OC(F)(F)F)n2)s1`
a: yes

q: Cool, now `Cc1nc(C)c(-c2nc(Nc3cc(C(N)=O)ccc3OC(C)C)sc2C)s1`
a: no
